Data credit: paper PMC5540273

Quick list: %Inh per entry.
tested on: p38-beta; construct: gene MAPK11; conditions: concentration: 1 μM,replicates: in singlicate; n = 1;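 further: KINOMEscan kinase panel screen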

molecule	%Inh
Cc1ccc2c(-c3ccnc(Nc4ccc(C(F)(F)F)cc4)n3)cnn2n1 [GW819776]	0%
CC(C(=O)NC1CCN(c2ccnc(Nc3ccc(F)cc3)n2)C1)c1ccc(Cl)cc1 (stereo not shown) [GSK1379713]	0%
Cn1ccc2ncnc(Oc3ccc(NC(=O)Nc4cc(C(C)(C)C)on4)c(Cl)c3)c21	78%
CS(=O)(=O)Nc1ccc(-c2ccnc3[nH]ccc23)cc1 [GSK993273]	0%
Cn1ccc2ncnc(Oc3ccc(NC(=O)Nc4ccnc(C(F)(F)F)c4)c(Cl)c3)c21	0%
CN(c1ccccc1CNc1nc(Nc2ccc3c(c2)CC(=O)N3)ncc1C(F)(F)F)S(C)(=O)=O	0%
Cc1ccn2nc(-c3ccc(F)cc3)c(-c3ccncc3)c2c1.Cl [GW457859]	18%
Cc1ccc(C(=O)Nc2ccc(Oc3ccc4nc(NC(=O)C5CC5)cn4c3)c(F)c2)c(=O)n1-c1ccccc1	0%
NC(=O)Nc1sc(-c2ccc(F)cc2)cc1C(N)=O [GW789449]	0%
COc1cccc(CNC(=O)NC2CCN(c3ccnc(Nc4cc(OC)c(OC)c(OC)c4)n3)C2)c1 (stereo not shown) [GSK1379765]	0%
C[C@@H](Oc1cc(-n2cnc3cc(-c4ccncc4)ccc32)sc1C(N)=O)c1ccccc1Cl [GSK479719]	0%
Cl.Cl.NC[C@H](CC1CCCCC1)NC(=O)c1ccc(-c2ccnc3[nH]ccc23)s1 [GSK1581428]	0%
COc1cccc(C2=C(Nc3cccc(Cl)c3)C(=O)NC2=O)c1 [SB-341556]	0%
Cc1n[nH]c2cc(Nc3ccnc(Nc4cccc(CN5CCOCC5)c4)n3)ccc12 [GW682569]	0%
CN1CCN(CCNc2nc3cc(Oc4ccc(NC(=O)Nc5cc(C(F)(F)F)ccc5F)cc4)ccc3[nH]2)CC1.Cl.Cl [GW768504]	7%
OCCn1cc(-c2cnc3nnn(Cc4ccc5ncccc5c4)c3n2)cn1	20%
C[C@@H](Oc1cc(-n2cnc3ccc(-c4ccncc4)cc32)sc1C(N)=O)c1ccccc1Cl [GSK483724]	0%
N#Cc1cccc(C(=O)NC2CCN(c3ccnc(Nc4ccc(F)cc4)n3)C2)c1 (stereo not shown) [GSK1379708]	0%
COc1cc2ncn(-c3cc(OCC4CCCCC4)c(C(N)=O)s3)c2cc1OC [GSK204559]	0%
O=c1[nH]cc(-c2ccc(O)cc2)c2sc(-c3ccncc3)cc12 [GSK1033723]	0%
CCCC(=O)Nc1n[nH]c2ncccc12 [SB-601436]	0%
CS(=O)(=O)c1cccc(CNc2nc(Nc3ccc4c(c3)[C@@H]3C[C@@H]4CNC3=O)ncc2C(F)(F)F)c1	0%
CS(=O)c1ccc(-c2coc3ccc(-c4n[nH]c(=O)o4)cc23)cc1 (stereo not shown)	9%
COC(=O)Nc1nc2cc(Oc3ccc(NC(=O)Nc4cc(C(F)(F)F)ccc4Cl)cc3)ccc2[nH]1.Cl [GW697465]	45%
C[C@@H](Oc1cc(-n2cnc3cc(-c4cnn(C)c4)ccc32)sc1C(N)=O)c1ccccc1Cl [GSK580432]	0%
Cn1ccc2ncnc(Oc3ccc(NC(=O)Nc4cccc(C(F)(F)F)c4)c(Cl)c3)c21	44%
CC(C)S(=O)(=O)N1CCN(Cc2ccc3c(c2)nc(NC(=O)c2ccsc2)n3C[C@H](O)c2ccccc2)CC1 [GW635815]	4%
Cn1ccc2ncnc(Oc3ccc(NC(=O)Nc4cnn(C(C)(C)C)c4)c(Cl)c3)c21	28%
